Target: receiver domain of ARABIDOPSIS … KINASE 5 (AHK5RD), labelled with Alexa Fluor-488 (Arabidopsis thaliana) (UniProt Q3S4A7)
Sequence (Q3S4A7 774-922): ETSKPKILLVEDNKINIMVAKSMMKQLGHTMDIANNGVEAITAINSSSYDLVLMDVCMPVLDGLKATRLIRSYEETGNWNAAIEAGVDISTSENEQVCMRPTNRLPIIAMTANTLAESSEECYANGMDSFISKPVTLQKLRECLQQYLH
Experiment: MST
observable: pKd
Lab note: report pKd as minus log10 of the concentration in molar units, number only.

Requested read-out: pKd. Entry: histidine kinase domain of ETHYLENE RESPONSE 1 (ETR1HK) (domain or fragment)
3.78

These data points were gathered from paper doi:10.1101/2021.09.16.460643.
